System: in vivo angiogenesis, blood vessel count
measurement-description: reduction of blood vessel formation in vivo – HTS, in vivo study (AID 732);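 note: zebrafish embryos dosed at one day post fertilization; 0% = reference inhibitor and 100% = plate mean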
condition-description: stronger effect = lower value;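 tested at 30 µM in the well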
metric-name: vessel count % control (%)
Write the value in % as a bare number.

Which value of vessel count % control has been reported for N#CC(Cc1ccc(O)c(O)c1)C(=O)N1CCc2ccccc21 (configuration not stated) in the records?
132

Next: C[N+](C)(C)CCOC(N)=O
114

Next: COc1cccc(OC)c1OCCNCC1CSc2ccccc2O1 (configuration not stated)
71.1

Next: CCCN(CCC)C1CCc2ccc(O)cc2C1 (configuration not stated)
87.6

Next: COC1=C(OC)C(=O)c2ccccc2C1=O
115

Next: C#CCN1C(C)=C(C(=O)OC)C(c2cccc([N+](=O)[O-])c2)C(C(=O)OCC)=C1C (configuration not stated)
132

Next: Nc1ccc2c3c(cccc13)C(=O)NC2=O
0

Next: N=Nc1c(-c2c(O)[nH]c3c(Cl)cc(Cl)cc23)[nH]c2ccc(Br)cc12
53.5

Next: CN=c1nc(-c2ccccc2)n(-c2ccccc2)s1
125

Next: CCCCC[C@H](CC(=O)NO)C(=O)N[C@H](C(=O)N1CCC[C@H]1CO)C(C)C
103

Next: Oc1cc2c(cc1O)[C@H]1c3ccccc3CN[C@@H]1CC2
83.3

Next: c1ccc2cc(CC3=NCCN3)ccc2c1
120

Next: CC(=O)NCCc1c[nH]c2ccc(O)cc12
101

Next: C[C@]12CC[C@H](OS(=O)(=O)O)CC1=CC[C@@H]1[C@@H]2CC[C@]2(C)C(=O)CC[C@@H]12
90.1

Next: N#Cc1cc2nc(O)c(O)nc2cc1[N+](=O)[O-]
94.9

Next: CSc1nc(N)c2ncn([C@@H]3O[C@H](COP(=O)(O)OP(=O)(O)OP(=O)(O)O)[C@H](O)C3O)c2n1 (some centres not stated)
105

Next: Nc1nc(Cl)nc2c1ncn2[C@@H]1O[C@H](CO)[C@H](O)C1O (some centres not stated)
107

Next: CC(C)NCC(O)c1ccc(O)c(O)c1 (configuration not stated)
97.1

Next: C[C@](N)(Cc1ccc(O)cc1)C(=O)O
116

Next: CCCCS(=N)(=O)CC[C@H](N)C(=O)O (some centres not stated)
93

Next: N#CC(=C(\N)Sc1ccccc1N)/C(C#N)=C(/N)Sc1ccccc1N
94.5

Next: CN(C)CCC(c1ccc(Br)cc1)c1ccccn1 (configuration not stated)
92.3

Next: O=C(O)c1cccnc1Nc1cccc(C(F)(F)F)c1
102

Next: CCC(C)N(C)C(=O)c1cc2ccccc2c(-c2ccccc2Cl)n1 (configuration not stated)
102

Next: O=C1NCN(c2ccccc2)C12CCN(CCCC(c1ccc(F)cc1)c1ccc(F)cc1)CC2
84.4

Next: N[C@@H](Cc1cnc[nH]1)C(=O)O
107

Next: CC1COc2c(N3CCN(C)CC3)c(F)cc3c(=O)c(C(=O)O)cn1c23 (configuration not stated)
74.9

Next: CC(C)COCC(CN(Cc1ccccc1)c1ccccc1)N1CCCC1 (configuration not stated)
104

Next: CCCCCCCCCC(=O)NC(CN1CCOCC1)[C@H](O)c1ccccc1 (some centres not stated)
74

Next: C=C[C@H]1CN2CCC1C[C@H]2[C@H](O)c1ccnc2ccc(OC)cc12 (some centres not stated)
98

Next: O=C1C(c2c(O)[nH]c3ccc([N+](=O)[O-])cc23)=Nc2ccc(Br)cc21
101

Next: N[C@@]1(C(=O)O)CC[C@@H](C(=O)O)C1
102

Next: Nc1nc2c(ncn2COC(CO)CO)c(=O)[nH]1
84.5

Next: O=C(O)c1cc(=O)cc(C(=O)O)[nH]1
86.1

Next: NC(Cc1ccc(Cl)cc1)C(=O)O (configuration not stated)
103

Next: CCCCCCCCCCCCCCCCCCNC(=O)OCC(COP(=O)([O-])OCC[n+]1ccsc1)OC (configuration not stated)
92

Next: CCC(=O)N1CCN(C(=O)c2ccccc2)CC1
134

Next: COc1cc(Cc2cnc(N)nc2N)cc(OC)c1OC
114

Next: Cc1cnc(C(=O)NCCc2ccc(S(=O)(=O)NC(=O)NC3CCCCC3)cc2)cn1
106

Next: O=c1ccn([C@@H]2O[C@H](COP(=O)(O)OP(=O)(O)O)[C@@H](O)[C@H]2O)c(=O)[nH]1
140

Next: CNCCc1c[nH]c2ccc(O)cc12
101

Next: CC(C)NC[C@@H](O)COc1ccc(CC(N)=O)cc1
94.2
